- experiment description: PK, oral administration
- Format: in vivo, male Sprague Dawley rats
- condition context: male, Sprague Dawley, plasma, rat, 3 mg/kg
observed property: bioavailability (%)
One number for each entry, in %.

-- ask May I ask what bioavailability has been recorded for `CN(C)Cc1ccc(S(=O)(=O)c2nnc(Nc3c4c(cc5c3CCC5)CCC4)[nH]2)cc1` ?
-- reply 48.6

---

- test system: NLRP3 (Homo sapiens)
- Sequence (Q96P20 whole entry): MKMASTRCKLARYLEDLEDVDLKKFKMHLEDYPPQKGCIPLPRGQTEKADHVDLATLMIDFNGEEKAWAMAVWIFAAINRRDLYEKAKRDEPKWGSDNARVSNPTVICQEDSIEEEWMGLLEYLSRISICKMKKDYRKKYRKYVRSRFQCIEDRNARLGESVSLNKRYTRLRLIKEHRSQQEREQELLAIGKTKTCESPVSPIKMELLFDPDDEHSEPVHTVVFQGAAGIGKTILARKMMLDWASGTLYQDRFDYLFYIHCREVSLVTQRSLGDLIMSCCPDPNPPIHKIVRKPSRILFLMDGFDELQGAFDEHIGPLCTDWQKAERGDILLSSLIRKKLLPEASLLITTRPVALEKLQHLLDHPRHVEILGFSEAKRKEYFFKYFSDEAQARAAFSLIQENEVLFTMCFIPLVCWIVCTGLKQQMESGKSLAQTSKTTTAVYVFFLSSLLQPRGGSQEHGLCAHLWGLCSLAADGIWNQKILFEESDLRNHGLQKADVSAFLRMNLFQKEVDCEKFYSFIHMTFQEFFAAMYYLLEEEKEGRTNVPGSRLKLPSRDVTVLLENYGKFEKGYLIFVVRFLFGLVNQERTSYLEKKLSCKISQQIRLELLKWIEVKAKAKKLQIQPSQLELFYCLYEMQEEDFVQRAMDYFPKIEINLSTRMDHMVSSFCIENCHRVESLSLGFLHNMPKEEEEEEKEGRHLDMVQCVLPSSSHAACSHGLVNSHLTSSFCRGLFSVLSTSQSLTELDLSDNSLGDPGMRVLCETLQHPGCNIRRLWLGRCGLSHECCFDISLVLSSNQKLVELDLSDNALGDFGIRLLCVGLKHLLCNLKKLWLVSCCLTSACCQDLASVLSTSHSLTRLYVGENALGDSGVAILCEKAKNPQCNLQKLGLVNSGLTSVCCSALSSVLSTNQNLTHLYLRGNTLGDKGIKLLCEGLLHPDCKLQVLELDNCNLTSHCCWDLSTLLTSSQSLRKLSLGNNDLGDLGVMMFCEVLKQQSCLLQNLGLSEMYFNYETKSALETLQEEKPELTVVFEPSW
- experiment description: THP-1 cells pyroptosis assay
- Format: cell-based
- Design: Seed THP-1 cells (25,000 cells/well) containing 1.0 μg/ml LPS; host or cells: THP-1
- condition context: LPS 1.0 μg/ml, nigericin 5 μM, resazurin readout, 10 μM top dose (Example 2: top dose of 30 μM)
pIC50: −log10 of the molar value.
observed property: pIC50

molecule	pIC50
CN(C)CCCS(=O)(=O)c1nnc(Nc2c3c(cc4c2CCC4)CCC3)[nH]1 [Example 48]	≥ 6.30
CC(C)c1cc(F)cc(C(C)C)c1Cc1nnc(S(=O)(=O)N2CCC(CN(C)C)C2)[nH]1 (centres unmarked) [Example 161]	≥ 5.30
COc1cc(-c2ccc3c(c2Nc2nnc(S(=O)(=O)N4CCC(N(C)C)CC4)[nH]2)CCO3)ccn1 [Example 226]	≥ 6.30
CC(C)c1cc(F)cc(-c2cccnc2)c1Nc1nnc(S(=O)(=O)c2ccn(C(C)C)n2)[nH]1 [Example 39]	≥ 5.00

Lab note: each molecule below needs its pIC50 filled in.
1. CN(C)C1CCN(S(=O)(=O)c2nnc(Nc3c4c(c(C#N)c5c3CCC5)CCC4)[nH]2)CC1 [Example 223]
2. CN1CCCC(COc2cc(-c3ccc4c(c3Nc3nnc(S(C)(=O)=O)[nH]3)CCC4)ccn2)C1 (centres unmarked) [Example 359]

-- reply
1: ≥ 5.30; 2: ≥ 5.30

Please report pIC50 for every entry that follows.
1. CC(C)N1CC(S(=O)(=O)c2nnc(Nc3c4c(cc5c3CCC5)CCC4)[nH]2)C1 [Example 22]
2. O=S(=O)(c1nnc(Nc2c3c(cc4c2CCC4)CCC3)[nH]1)N1CCC(N2CCOCC2)C1 (centres unmarked) [Example 127]

-- reply
["≥ 5.30", "≥ 5.30"]
